// reported OD 450/OD450Control antibody 1 per item
- system: T1, human soluble IL-4Rα (sIL-4Rα) (human, UniProt P24394 26-232)
- T1 construct: Bought reagent (PEPRO TECH, Catalog Number 200-04R); also called shIL-4Rα; soluble hIL-4 Rα
- T1 sequence: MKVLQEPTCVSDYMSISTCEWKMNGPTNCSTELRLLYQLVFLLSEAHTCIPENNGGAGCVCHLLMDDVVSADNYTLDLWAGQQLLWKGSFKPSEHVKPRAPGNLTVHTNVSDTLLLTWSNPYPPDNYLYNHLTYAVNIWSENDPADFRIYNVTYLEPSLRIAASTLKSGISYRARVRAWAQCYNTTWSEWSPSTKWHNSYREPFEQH
- test.summary: ELISA, coated sIL-4Rα, culture supernatant
- Experimental: 100 μl of 100 μg/ml sIL-4Rα solution was added to 9.90 ml of PBS, mixed up and down, and then an antigen coating buffer of 1.0 μg/ml was obtained. The prepared antigen coating buffer was added to a 96-well ELISA plate (Corning) with a volume of 100 μl per well. The 96-well ELISA plate was incubated overnight in a refrigerator at 4° C. […] The 96-well ELISA plate was placed in flexstation 3 (Molecular Devices), the values of OD450 were read, and the data were collected, calculated and analyzed. […]

Answered cases to consult:
binder="L1015H1000 (antibody, V domains shown, human kappa) VH: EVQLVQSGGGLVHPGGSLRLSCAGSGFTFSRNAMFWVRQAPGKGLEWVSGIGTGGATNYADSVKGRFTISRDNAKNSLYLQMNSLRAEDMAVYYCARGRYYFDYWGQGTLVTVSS VL: EIVLTQSPGTLSLSPGERATLSCRASQSVSSSYLAWYQQKPGQAPRLLIFGASSRAPGIPDRFSGSGSGTDFTLTISRLEPEDFAVYYCQQYDHSPPWTFGQGTKVEIK" measured_metric="OD 450/OD450Control antibody 1" result_value=0.67
binder="L1021H1029 (antibody, V domains shown, human kappa) VH: EVQLVESGGGLVQPGGSLRLSCAASGFTFSRNAMFWVRQAPGKGLEWVSGIGTGGATSYADSVKGRFTISRDNAKNSLYLQMNSLRAEDMAVYYCARGRYYFPWWGQGTLVTVSS VL: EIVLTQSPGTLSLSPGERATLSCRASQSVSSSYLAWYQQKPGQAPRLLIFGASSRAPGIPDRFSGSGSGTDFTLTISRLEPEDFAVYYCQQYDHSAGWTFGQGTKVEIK" measured_metric="OD 450/OD450Control antibody 1" result_value=1
binder="L1024H1000 (antibody, V domains shown, human kappa) VH: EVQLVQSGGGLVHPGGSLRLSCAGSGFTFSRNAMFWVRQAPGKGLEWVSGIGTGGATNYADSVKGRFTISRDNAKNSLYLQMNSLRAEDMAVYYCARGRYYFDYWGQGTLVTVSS VL: EIVLTQSPGTLSLSPGERATLSCRASQSVSNSYLAWYQQKPGQAPRLLIFGASSRAPGIPDRFSGSGSGTDFTLTISRLEPEDFAVYYCQQYDHSAGWTFGQGTKVEIK" measured_metric="OD 450/OD450Control antibody 1" result_value=0.69
binder="L1020H1000 (antibody, V domains shown, human kappa) VH: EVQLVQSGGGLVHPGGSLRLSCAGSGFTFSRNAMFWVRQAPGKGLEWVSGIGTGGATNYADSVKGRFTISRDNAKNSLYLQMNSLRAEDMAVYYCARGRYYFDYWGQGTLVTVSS VL: EIVLTQSPGTLSLSPGERATLSCRASQSVSSSYLAWYQQKPGQAPRLLIYGASSRATGIPDRFSGSGSGTDFTLTISRLEPEDFAVYYCQQYDHSAGWTFGQGTKVEIK" measured_metric="OD 450/OD450Control antibody 1" result_value=2.27
binder="L1024H1031 (antibody, V domains shown, human kappa) VH: EVQLVESGGGLVQPGGSLRLSCAASGFTFSRNAMFWVRQAPGKGLEWVSGIGTGGATSYADSVKGRFTISRDNAKNSLYLQMNSLRAEDTAVYYCARGRYYFDYWGQGTLVTVSS VL: EIVLTQSPGTLSLSPGERATLSCRASQSVSNSYLAWYQQKPGQAPRLLIFGASSRAPGIPDRFSGSGSGTDFTLTISRLEPEDFAVYYCQQYDHSAGWTFGQGTKVEIK" measured_metric="OD 450/OD450Control antibody 1" result_value=0.9

Then this binder:
OD 450/OD450Control antibody 1 lookup needed for L1024H1007 (antibody, V domains shown, human kappa) VH: EVQLVQSGGGLVHPGGSLRLSCAGSGFTFSRNAMFWVRQAPGKGLEWVSGIGTGGATSYADSVKGRFTISRDNAKNSLYLQMNSLRAEDMAVYYCARGRYYFDYWGQGTLVTVSS VL: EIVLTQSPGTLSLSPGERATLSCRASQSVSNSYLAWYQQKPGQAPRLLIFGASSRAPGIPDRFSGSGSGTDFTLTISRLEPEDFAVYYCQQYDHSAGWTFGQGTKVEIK , thanks.
0.23
